Assay Name: chemical genetic growth profiling, strain panel (AID 1159580);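 further: tested at 20 µM; growth read once vehicle control cultures reached saturation at 30 °C; 1 = growth at the plate median or of vehicle wells; lower values mean less growth of the strain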
Measurement Setup: S. cerevisiae deletion strains, growth OD, locus YLR342W, strain FKS1, active compounds read low
Among all 5,500 compounds or so, about 2,000 (36%) were called active. About 18% were inconclusive and are not listed. Some of the results follow.
Reported normalized growth is given for each of the following compounds.

Given Smiles: OC[C@H]1O[C@@H](O[C@@H]2[C@@H](CO)O[C@](O)(CO)[C@H]2O)[C@H](O)[C@@H](O)[C@H]1O
normalized growth: 1.02 (inactive)
//
Given Smiles: CC(=O)Oc1cccc(O)c1
normalized growth: 1.03 (inactive)
//
Given Smiles: OC[C@H]1O[C@@H](O[C@H]2[C@H](O)[C@@H](O)[C@@H](O)O[C@@H]2CO)[C@H](O)[C@@H](O)[C@@H]1O
normalized growth: 1.01 (inactive)
//
Given Smiles: OC[C@H]1O[C@@](CO)(O[C@@H]2O[C@H](CO)[C@@H](O)[C@H](O)[C@H]2O)[C@@H](O[C@@H]2O[C@H](CO)[C@@H](O)[C@H](O)[C@H]2O)[C@@H]1O
normalized growth: 1.02 (inactive)
